The entries below are paired with their reported pKd.
- testedSystem: recombinant human GITR (Cat No. 13643-H08H, Lot No. LC12JA2509, Sino Biological) (human) (UniProt Q9Y5U5)
- method: SPR Biacore 8K, single-cycle kinetics, IgG in supernatant captured on Protein A, GITR as analyte
Reminder that pKd means the negative base-10 logarithm of the concentration expressed in mol/L.

For orientation, consider the following solved cases.
• anti-GITR 51B VH5/VL1 humanized antibody (human IgG1, kappa) (antibody, V domains shown) VH: QVQLVQSGAEVKKPGASVKVSCKTTGYRFTGYWIDWVRQPPGKGLEWIGEILPGSGATYYSENFKGKVTITADTSTDTAYMELSSLRSEDTAIYYCARKGGYYAMDYWGQGTLVTVSS VL: QIVLTQSPAIMSASLGERVTMSCTASSSVSSSYFHWYQQKPGSAPKLWIYSTSNLASGVPDRFSGSGSGTDYTLTVSSLQAEDVATYYCHLYHRSPRTFGGGTTVDIKR = 8.71
• anti-GITR 51B VH0/VL1 antibody (human IgG1, kappa) (antibody, V domains shown) VH: QVQLQQSGAELMKPGASVKLSCKTTGYRFTGYWIEWVKQRPGHGLEWIGEILPGSGATYYSENFKGKATFTADTSSNTAYMQVSSLTTGDSAIYYCARKGGYYAMDYWGQGTSVTVSS VL: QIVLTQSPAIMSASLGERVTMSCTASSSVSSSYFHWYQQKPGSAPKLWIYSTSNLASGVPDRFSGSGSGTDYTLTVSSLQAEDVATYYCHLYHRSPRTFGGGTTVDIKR = 9.28

For the binder shown here, anti-GITR 51B VH1/VL4 humanized antibody (human IgG1, kappa) (antibody, V domains shown) VH: QVQLVQSGAELKKPGASVKLSCKTTGYRFTGYWIEWVRQPPGKGLEWIGEILPGSGATYYSENFKGKATITADTSTNTAYMEVSSLRSGDSAIYYCARKGGYYAMDYWGQGTSVTVSS VL: EIVLTQSPATLSLSPGERATLSCTASSSVSSSYFHWYQQKPGKAPKLWIYSTSNLQSGVPDRFSGSGSGTDYTLTISSLQAEDVATYYCHLYHRSPRTFGGGTKVEIKR , give the reported pKd.
8.88

The origin of these recorded values is patent EP4339209A1.
